tested system: Hck (UniProt P08631)
Sequence (P08631 whole entry, looked up): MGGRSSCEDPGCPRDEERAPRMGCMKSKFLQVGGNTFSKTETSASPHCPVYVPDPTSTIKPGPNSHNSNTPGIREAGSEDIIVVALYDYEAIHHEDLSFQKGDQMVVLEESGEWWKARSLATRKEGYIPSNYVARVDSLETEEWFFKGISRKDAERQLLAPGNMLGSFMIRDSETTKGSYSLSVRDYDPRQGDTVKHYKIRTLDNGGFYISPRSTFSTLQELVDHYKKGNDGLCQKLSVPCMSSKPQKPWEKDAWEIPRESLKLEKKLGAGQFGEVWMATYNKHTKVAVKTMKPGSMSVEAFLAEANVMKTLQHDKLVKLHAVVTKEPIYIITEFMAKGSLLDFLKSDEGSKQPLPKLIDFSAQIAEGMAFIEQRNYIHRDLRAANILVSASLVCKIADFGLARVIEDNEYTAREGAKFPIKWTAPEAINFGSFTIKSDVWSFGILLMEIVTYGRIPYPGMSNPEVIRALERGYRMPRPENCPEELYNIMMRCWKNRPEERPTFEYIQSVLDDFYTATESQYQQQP
assay name: phosphorylation enrichment, bacterial display (enrichment ratio); higher = better substrate or ligand; peptides without Tyr show the background;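 further: 11-residue human phosphosite peptides and single-mutation variants displayed on the E. coli surface, counted by deep sequencing, each peptide's frequency after selection divided by its frequency in the unselected input library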;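 further: frequency after pTyr selection over input frequency; kinase dosed for 20-30% of maximal phosphorylation in three min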
endpoint label: phosphorylation enrichment
Answer with a number only.

Some sequences with recorded phosphorylation enrichment:
AFSLKYDQQTQ [SYTL4_Y366_E367D]    0.614
SETSRYLSELF [KCNJ3_Y67_D70E]    0.464
KELAKYFKLHH [AK7_Y390_N389K_YF]    0.484
FPQARYHWLVL [APTX_Y214_K211Q_YF]    0.543
FAREGYSALPQ [SARS2_Y52_YF]    0.524

Turning now to a further record.
Query string: Dear colleague, please send me the reported phosphorylation enrichment for PLDGEYFTHQI [TP53_Y327_L330H] when you can.
Result string: 1.65

The reported measurements were obtained from the supplement of paper PMC10065799.
